Provenance of the data: ChEMBL document CHEMBL5120927

- Tested on: Staphylococcus aureus
- test.method.notes: Antibacterial activity against wild type Staphylococcus aureus 78/CF assessed as reduction in microbial growth incubated for 24 hrs by microdilution assay
- Type: functional
endpoint: MIC (µg/mL)
Numbers only, in µg/mL.

{"columns": ["compound", "display.unit", "reading"],
 "data": [
  ["CCCC/C=C\\CCOP(=O)(CCN(CCCN)CCCN)OCCCCCOP(=O)(CCN(CCCN)CCCN)OCC/C=C\\CCCC.Cl.Cl.Cl.Cl.Cl.Cl (stereo not given)", "µg/mL", 8]
]}

Each compound below has a reported value. Please supply its MIC.
1. O=C(N[C@H](CO)[C@H](O)c1ccc([N+](=O)[O-])cc1)C(Cl)Cl
2. CCCCCCCCOP(=O)(CCN(CCCN)CCCN)OCCCCCCOP(=O)(CCN(CCCN)CCCN)OCCCCCCCC.Cl.Cl.Cl.Cl.Cl.Cl (stereo not given)
3. O=C(O)c1cn(C2CC2)c2cc(N3CCNCC3)c(F)cc2c1=O
4. CC[C@H]1OC(=O)[C@H](C)[C@@H](O[C@H]2C[C@@](C)(OC)[C@@H](O)[C@H](C)O2)[C@H](C)[C@@H](O[C@@H]2O[C@H](C)C[C@H](N(C)C)[C@H]2O)[C@](C)(O)C[C@@H](C)C(=O)[C@H](C)[C@@H](O)[C@]1(C)O
5. Cc1onc(-c2ccccc2)c1C(=O)N[C@@H]1C(=O)N2[C@@H]1SC(C)(C)[C@@H]2C(=O)O

1. 1
2. 1
3. 0.25
4. 0.125
5. 0.25

Each compound below has a reported value. Please supply its MIC.
1. CCCCCCCCOP(=O)(CCN(CCCN)CCCN)OCCCCOP(=O)(CCN(CCCN)CCCN)OCCCCCCCC.Cl.Cl.Cl.Cl.Cl.Cl (stereo not given)
2. CC1(C)S[C@@H]2[C@H](NC(=O)[C@H](N)c3ccccc3)C(=O)N2[C@H]1C(=O)O
3. CCCCCCOP(=O)(CCN(CCCNC(=N)N)CCCNC(=N)N)OCCCCCCCCOP(=O)(CCN(CCCNC(=N)N)CCCNC(=N)N)OCCCCCC.Cl.Cl.Cl.Cl.Cl.Cl (stereo not given)
4. CCC[C@@H]1C[C@@H](C(=O)N[C@@H]([C@H]2O[C@H](SC)[C@H](O)[C@@H](O)[C@H]2O)[C@H](C)Cl)N(C)C1

1. 2
2. 0.5
3. 0.5
4. 0.063

###

For each record, write down the corresponding MIC.
- Tested on: Staphylococcus epidermidis
- test.method.notes: Antibacterial activity against Staphylococcus epidermidis CCM 7221 assessed as inhibition of bacterial growth incubated for 24 hrs by microdilution assay
- Type: functional
Answers are plain numbers, in µg/mL.

{"columns": ["compound", "reading"],
 "data": [
  ["CCC/C=C\\CCOP(=O)(CCN(CCCN)CCCN)OCCCCCCCCOP(=O)(CCN(CCCN)CCCN)OCC/C=C\\CCC.Cl.Cl.Cl.Cl.Cl.Cl (centres undefined)", 2]
]}

Each compound below has a reported value. Please supply its MIC.
1. CCC/C=C\CCOP(=O)(CCN(CCCN)CCCN)OCCCCCCCOP(=O)(CCN(CCCN)CCCN)OCC/C=C\CCC.Cl.Cl.Cl.Cl.Cl.Cl (centres undefined)
2. CCC/C=C\CCOP(=O)(CCN(CCCN)CCCN)OCCCCCOP(=O)(CCN(CCCN)CCCN)OCC/C=C\CCC.Cl.Cl.Cl.Cl.Cl.Cl (centres undefined)
3. Cl.Cl.Cl.Cl.Cl.Cl.NCCCN(CCCN)CCP(=O)(OCCCCCCOP(=O)(CCN(CCCN)CCCN)OCCc1ccccc1)OCCc1ccccc1 (centres undefined)

1. 2
2. 128
3. 64
